target: T1, H4-15 histone H4 tail peptide
T1 chain: GRGKGGKGLGKGGAK
observable: Km(µM) for H4-15

protein	reported
semi-synthetic p300 HAT domain Y1467F (protein) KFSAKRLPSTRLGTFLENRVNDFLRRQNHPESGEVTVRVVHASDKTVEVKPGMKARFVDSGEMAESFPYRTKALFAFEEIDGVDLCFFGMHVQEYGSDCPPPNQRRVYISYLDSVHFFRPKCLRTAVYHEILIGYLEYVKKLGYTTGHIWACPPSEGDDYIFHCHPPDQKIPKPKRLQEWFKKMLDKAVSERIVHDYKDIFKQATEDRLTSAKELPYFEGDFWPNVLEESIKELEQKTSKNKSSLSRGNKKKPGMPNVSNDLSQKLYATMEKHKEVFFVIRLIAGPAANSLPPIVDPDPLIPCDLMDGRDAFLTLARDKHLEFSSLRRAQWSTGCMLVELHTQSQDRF	520
